Field: pIC50. System: Receptor-type tyrosine-protein kinase FLT3 (Homo sapiens). Provenance: assorted publications.
- target or test system: Receptor-type tyrosine-protein kinase FLT3 (Homo sapiens)
- Sequence (P36888 whole entry): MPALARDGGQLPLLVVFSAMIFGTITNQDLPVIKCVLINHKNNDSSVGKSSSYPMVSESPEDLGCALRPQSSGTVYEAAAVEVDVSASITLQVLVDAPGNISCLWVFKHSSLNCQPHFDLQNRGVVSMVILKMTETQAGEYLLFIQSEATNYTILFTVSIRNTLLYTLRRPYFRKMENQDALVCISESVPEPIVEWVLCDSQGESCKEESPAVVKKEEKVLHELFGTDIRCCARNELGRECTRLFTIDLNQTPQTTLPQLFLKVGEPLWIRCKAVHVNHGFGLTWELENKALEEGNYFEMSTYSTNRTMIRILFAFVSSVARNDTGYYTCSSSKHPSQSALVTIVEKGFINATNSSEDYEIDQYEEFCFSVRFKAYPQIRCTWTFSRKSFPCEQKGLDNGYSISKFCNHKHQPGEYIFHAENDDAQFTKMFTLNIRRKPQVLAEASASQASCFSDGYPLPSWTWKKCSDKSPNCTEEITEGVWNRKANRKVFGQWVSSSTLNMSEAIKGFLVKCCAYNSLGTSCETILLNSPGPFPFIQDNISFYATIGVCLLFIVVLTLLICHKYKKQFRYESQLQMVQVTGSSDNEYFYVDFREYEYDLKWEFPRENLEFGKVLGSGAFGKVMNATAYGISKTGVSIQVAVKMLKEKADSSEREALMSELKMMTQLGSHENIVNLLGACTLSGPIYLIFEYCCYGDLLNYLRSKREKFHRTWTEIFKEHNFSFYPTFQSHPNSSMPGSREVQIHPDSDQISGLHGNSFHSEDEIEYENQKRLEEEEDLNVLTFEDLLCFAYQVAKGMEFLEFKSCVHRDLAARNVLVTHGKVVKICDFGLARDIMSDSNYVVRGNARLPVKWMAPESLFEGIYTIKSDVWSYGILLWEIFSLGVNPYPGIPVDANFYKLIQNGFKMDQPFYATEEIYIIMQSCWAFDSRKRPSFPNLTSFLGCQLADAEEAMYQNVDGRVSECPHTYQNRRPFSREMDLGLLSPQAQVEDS
pIC50: −log10 of the molar value.
quantity: pIC50

COc1ccc(Nc2cccc(-c3cnc4cc(-c5cnn(C)c5)ccn34)n2)cc1OC = 8.18
CCc1ccc(-c2c(-c3cnc(C)[nH]3)c(=O)[nH]c3ccc(Cl)cc23)cc1 = 7.47
CC(C)(C)c1cc(NC(=O)Nc2ccc(-c3c[nH]c4ncnc(N)c34)cc2F)no1 = 8.40

1: CCN(Cc1cc(Nc2nc(C)cn3c(-c4cn[nH]c4)cnc23)sn1)C(C)(C)CO
2: CC(C)(O)[C@H]1CC[C@H](Nc2ccn3ncc(-c4cccc(C(F)(F)F)c4)c3n2)CC1
3: CNC(=O)c1cc(Oc2ccc(C3=NNC(c4cccc(Br)c4)C3)cc2)ccn1 (centres undefined)
4: C=CC(=O)Nc1ccc(-n2c(=O)cnc3cnc(Nc4ccc(N5CCN(C)CC5)cc4OC)nc32)cc1
IN: Arrange the 4 entries by pIC50 so the values rise. Please reply with the labels ordered as requested. Many thanks.
OUT: 3, 2, 4, 1

---

Field: pIC50. System: Receptor-type tyrosine-protein kinase FLT3 (Homo sapiens). Provenance: assorted publications.
- target or test system: Receptor-type tyrosine-protein kinase FLT3 (Homo sapiens)
- Sequence (P36888 whole entry): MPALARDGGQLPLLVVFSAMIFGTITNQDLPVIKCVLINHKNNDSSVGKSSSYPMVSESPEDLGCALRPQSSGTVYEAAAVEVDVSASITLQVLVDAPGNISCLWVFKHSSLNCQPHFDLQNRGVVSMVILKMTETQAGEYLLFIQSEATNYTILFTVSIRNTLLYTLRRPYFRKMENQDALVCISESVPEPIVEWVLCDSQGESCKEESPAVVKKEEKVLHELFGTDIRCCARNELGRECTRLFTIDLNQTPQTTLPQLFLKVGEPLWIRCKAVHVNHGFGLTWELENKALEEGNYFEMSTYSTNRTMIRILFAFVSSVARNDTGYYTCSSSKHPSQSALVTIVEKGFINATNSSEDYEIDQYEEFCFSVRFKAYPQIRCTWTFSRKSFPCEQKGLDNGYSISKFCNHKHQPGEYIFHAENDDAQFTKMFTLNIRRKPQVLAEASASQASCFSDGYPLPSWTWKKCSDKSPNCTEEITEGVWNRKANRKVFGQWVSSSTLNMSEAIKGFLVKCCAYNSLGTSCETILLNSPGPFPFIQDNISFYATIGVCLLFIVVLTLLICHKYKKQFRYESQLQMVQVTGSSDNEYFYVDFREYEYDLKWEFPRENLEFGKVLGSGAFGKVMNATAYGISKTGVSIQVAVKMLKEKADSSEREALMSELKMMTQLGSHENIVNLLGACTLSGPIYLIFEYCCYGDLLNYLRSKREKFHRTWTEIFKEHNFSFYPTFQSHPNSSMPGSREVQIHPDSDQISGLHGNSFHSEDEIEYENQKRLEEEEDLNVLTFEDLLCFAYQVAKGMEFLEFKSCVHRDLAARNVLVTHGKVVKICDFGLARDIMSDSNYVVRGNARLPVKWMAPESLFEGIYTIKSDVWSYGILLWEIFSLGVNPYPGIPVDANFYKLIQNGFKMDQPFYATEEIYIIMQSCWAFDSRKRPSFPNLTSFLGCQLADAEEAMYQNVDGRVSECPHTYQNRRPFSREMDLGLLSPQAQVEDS
pIC50: −log10 of the molar value.
quantity: pIC50

The examples below pair each entry with its known result.
CN1CCC(Nc2ccc(C(=O)Nc3n[nH]c4cc(Oc5ccccc5)ccc34)cc2)CC1 = 6.87
c1cc2c3cnc(Nc4ccc(N5CCNCC5)cn4)nc3n(C3CCCC3)c2nn1 = 7.02
NC(=O)c1c(NC(=O)c2ccncc2)sc2c1CCCC2 = 6.96
COc1ccc2c(Nc3c[nH]nc3C(=O)Nc3ccc(CN4CCOCC4)cc3)ccnc2c1 = 7.01

I: O=C1Nc2ccc(F)cc2/C1=C1/Nc2ccc(F)cc2/C1=N\OCCN1CCCC1
II: O=Nc1c(-c2c(O)[nH]c3ccc(I)cc23)[nH]c2ccccc12
IN: I would appreciate it if you could say which entry, I or II , has the lower pIC50 value. I would appreciate it if you answered with the label of your choice.
OUT: II
(II: 6.38, I: 6.94)
